target-system: PI3Kα (Homo sapiens (Human))
Sequence (P42336 whole entry, species assumed): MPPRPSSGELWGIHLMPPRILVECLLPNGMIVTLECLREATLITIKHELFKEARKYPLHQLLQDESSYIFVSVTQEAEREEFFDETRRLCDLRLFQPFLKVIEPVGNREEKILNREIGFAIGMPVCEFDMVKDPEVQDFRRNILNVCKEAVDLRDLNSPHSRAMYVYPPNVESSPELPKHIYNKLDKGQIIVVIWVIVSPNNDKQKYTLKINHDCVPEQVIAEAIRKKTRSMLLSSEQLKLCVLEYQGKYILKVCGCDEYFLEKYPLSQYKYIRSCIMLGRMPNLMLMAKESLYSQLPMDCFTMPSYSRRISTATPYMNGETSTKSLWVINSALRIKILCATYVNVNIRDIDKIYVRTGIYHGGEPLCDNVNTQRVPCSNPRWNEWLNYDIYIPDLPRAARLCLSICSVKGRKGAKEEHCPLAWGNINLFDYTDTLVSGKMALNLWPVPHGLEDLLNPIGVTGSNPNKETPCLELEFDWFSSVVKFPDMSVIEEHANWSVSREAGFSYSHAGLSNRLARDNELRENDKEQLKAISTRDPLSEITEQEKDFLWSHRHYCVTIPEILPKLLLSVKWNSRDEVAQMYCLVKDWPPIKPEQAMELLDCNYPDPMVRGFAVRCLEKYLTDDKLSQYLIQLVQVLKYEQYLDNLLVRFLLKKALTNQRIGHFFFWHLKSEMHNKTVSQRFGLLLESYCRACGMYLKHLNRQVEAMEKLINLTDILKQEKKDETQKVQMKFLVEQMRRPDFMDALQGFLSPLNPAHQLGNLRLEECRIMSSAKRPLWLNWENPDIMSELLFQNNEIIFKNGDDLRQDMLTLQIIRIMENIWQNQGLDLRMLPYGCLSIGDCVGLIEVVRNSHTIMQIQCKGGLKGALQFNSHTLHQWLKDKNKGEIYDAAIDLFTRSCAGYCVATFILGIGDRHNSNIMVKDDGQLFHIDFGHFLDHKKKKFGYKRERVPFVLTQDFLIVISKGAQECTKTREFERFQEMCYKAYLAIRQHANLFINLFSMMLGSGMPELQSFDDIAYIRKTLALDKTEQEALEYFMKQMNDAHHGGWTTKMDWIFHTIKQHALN
Sequence (P27986 whole entry partner, species assumed): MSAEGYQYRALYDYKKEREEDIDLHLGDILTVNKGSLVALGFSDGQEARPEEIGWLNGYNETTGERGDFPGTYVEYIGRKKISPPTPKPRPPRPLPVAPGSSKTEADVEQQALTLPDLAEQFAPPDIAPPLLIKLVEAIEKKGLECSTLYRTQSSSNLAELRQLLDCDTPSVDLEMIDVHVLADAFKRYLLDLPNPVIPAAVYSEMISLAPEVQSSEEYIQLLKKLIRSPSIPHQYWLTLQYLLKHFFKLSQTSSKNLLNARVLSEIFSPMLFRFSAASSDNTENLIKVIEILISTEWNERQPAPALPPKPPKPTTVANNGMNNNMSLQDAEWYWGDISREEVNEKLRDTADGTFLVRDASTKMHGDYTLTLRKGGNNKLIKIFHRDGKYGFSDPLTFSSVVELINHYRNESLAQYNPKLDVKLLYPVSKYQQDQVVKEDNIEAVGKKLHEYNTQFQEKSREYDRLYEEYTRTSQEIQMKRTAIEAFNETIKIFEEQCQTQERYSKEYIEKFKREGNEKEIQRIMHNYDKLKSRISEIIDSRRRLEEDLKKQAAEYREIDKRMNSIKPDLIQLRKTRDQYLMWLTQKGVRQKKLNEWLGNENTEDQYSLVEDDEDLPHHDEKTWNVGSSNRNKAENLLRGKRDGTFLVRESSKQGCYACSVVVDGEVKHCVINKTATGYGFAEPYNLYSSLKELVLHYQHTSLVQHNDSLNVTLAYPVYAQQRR
assay-protocol: PI3Kα enzymatic inhibitory activity IC50 assay
Assay type: biochemical
applied-conditions: selectivity ratio
Range-based classes on measured α/δ (ratio of IC50 values against PI3Kα to PI3Kδ): b0 (below 30), b1 (30 to below 90), b2 (90 or more)

COc1ncc(-c2nc(N3CCOCC3)nc3c(CN4CCC(C(C)(C)O)CC4)cccc23)cc1NS(C)(=O)=O; b2
COc1ncc(-c2nc(N3CCOCC3)nc3c(OC4CCOCC4)cc(F)cc23)cc1NS(C)(=O)=O; b0
COc1ncc(-c2nc(N3CCOCC3)nc3c(CN4CCC[C@H]4C(C)(C)O)cc(F)cc23)cc1NS(C)(=O)=O; b1
COc1ncc(-c2nc(N3CCOCC3)nc3c(CN4CC(C(C)(C)O)C4)cc(F)cc23)cc1NS(C)(=O)=O; b1
COc1ncc(-c2nc(N3CCOCC3)nc3c(OC4CN(C5CCOCC5)C4)cc(F)cc23)cc1NS(C)(=O)=O; b0
COc1ncc(-c2nc(N3CCOCC3)c3sc(CN4CCC(N(C)C(C)C)CC4)c(C)c3n2)cc1NS(C)(=O)=O; b1
COc1ncc(-c2nc(N3CCOCC3)nc3c(OC4CC(C(C)(C)O)C4)cc(F)cc23)cc1NS(C)(=O)=O (centres unmarked); b1
COc1ncc(-c2nc(N3CCOCC3)c3nc(OC4CCN(C5COC5)CC4)n(C)c3n2)cc1NS(C)(=O)=O; b0
COc1ncc(-c2nc(N3CCOCC3)c3sc(CN4CCC(C(C)(C)O)CC4)c(C)c3n2)cc1NS(C)(=O)=O; b1

Moving on to the next compound.
Quick check: band for COc1ncc(-c2nc(N3CCOCC3)nc3c(CN4CCC(C(C)(C)O)CC4)cc(F)cc23)cc1NS(C)(=O)=O b2
